Data origin, for the record: the supplement of paper PMC7726561

- system: HLA-B*07:02;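 further: lysates heated 10 min at 37–73 °C, complexes pulled down with pan-HLA I antibody, peptide signal by DIA-MS relative to 37 °C, Tm where half the complex is unfolded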
- assay name: thermal melting temperature (Tm) of peptide-HLA complex; higher = more thermostable pHLA complex
- stated conditions: C1R-B*07:02
The full ranking holds about 1,400 sequences; the median of “thermal melting temperature (Tm) of peptide-HLA complex” is about 60, and the lowest 2% start at about 45. The entries come from a sample that favours the lowest values as a whole.
reported metric: thermal melting temperature (°C)
The answer is to be given in °C; state only the numeric part.

Reference set (8 entries):
| residue codes | unit of measure | number |
| --- | --- | --- |
| SPAPPLLHV | °C | 60.8 |
| IPRPDGIEW | °C | 58.4 |
| RPADSMLNVL | °C | 62 |
| GSISRIYL | °C | 41.4 |
| YPRAQLEVSAL | °C | 61.5 |
| LPSKEHVDVI | °C | 44.8 |
| KPINVRVTTM | °C | 56 |
| LPNGRDTPAL | °C | 59.2 |

// thermal melting temperature lookup, sequence = IVDSARSIL , result: 57.8

// thermal melting temperature lookup, sequence = YPPNPWREI , result: 59.3

// thermal melting temperature lookup, sequence = MPHVPITTL , result: 61.3

// thermal melting temperature lookup, sequence = IPSSHPVSL , result: 56.2

// thermal melting temperature lookup, sequence = SPASRSISLL , result: 57.1

// thermal melting temperature lookup, sequence = DPMKARVVL , result: 49.3

// thermal melting temperature lookup, sequence = LPGISREAL , result: 41.3

// thermal melting temperature lookup, sequence = GPMNLRAAF , result: 62.1
